These entries and their values trace back to ChEMBL document CHEMBL3259528.

# Test system: Serratia marcescens
# assay.explanation: Antimicrobial activity against Serratia marcescens ATCC 14576 after 24 to 48 hrs by two-fold broth microdilution method
# Type: functional
Listed below: MIC90 values for each entry.
readout.name: MIC90

>>> print(df.to_string())
                                   compound         assay_system  experimental_value
0  CCCc1ccc(C(=O)N/N=C/c2ccc([N+](=O)[O-])o2)cc1  Serratia marcescens             66.3 µM
1  CC(=O)N1N=C(c2ccc([N+](=O)[O-])cc2)OC1c1ccc([N+](=O)[O-])o1 (stereo not drawn)  Serratia marcescens             90.5 µM
2  CC(=O)N1N=C(c2ccc(C#N)cc2)OC1c1ccc([N+](=O)[O-])o1 (stereo not drawn)  Serratia marcescens             96.3 µM
3  CCCOc1ccc(C(=O)N/N=C/c2ccc([N+](=O)[O-])o2)cc1  Serratia marcescens             66.7 µM
4  N#Cc1ccc(C(=O)N/N=C/c2ccc([N+](=O)[O-])o2)cc1  Serratia marcescens              111 µM
5  CC(=O)N1N=C(c2ccc(Cl)cc2Cl)OC1c1ccc([N+](=O)[O-])o1 (stereo not drawn)  Serratia marcescens             85.7 µM
6  CCOc1ccc(C2=NN(C(C)=O)C(c3ccc([N+](=O)[O-])o3)O2)cc1 (stereo not drawn)  Serratia marcescens             85.7 µM
7  O=C(N/N=C/c1ccc([N+](=O)[O-])o1)c1ccc(F)cc1  Serratia marcescens              104 µM
